B1: TOR1AIP2 (parent)
chain: SPGHSSAGQEGEDTLRRRLLAPEA

Variants of: B1
Experiment Summary: protein stability index of a GFP-peptide fusion (GPS, HEK-293T) (PSI 1-6); higher = more stable;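 note: lentivirally expressed fusions sorted by FACS into six bins by GFP to DsRed ratio, PSI derived from sequencing read proportions per bin multiplied by bin number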
Assay Setup: c terminus: a fixed tail appended
Assign class by protein stability index: not lower than 4 means y; lower than 4 means n.

>  <Variant Code>
P2L

>  <Class Label>
n

$$$$
>  <Variant Code>
L19W

>  <Class Label>
y

$$$$
>  <Variant Code>
L19P

>  <Class Label>
y

$$$$
>  <Variant Code>
G11I

>  <Class Label>
n

$$$$
>  <Variant Code>
E10H

>  <Class Label>
n

$$$$
>  <Variant Code>
L20P

>  <Class Label>
y

$$$$
>  <Variant Code>
R16M

>  <Class Label>
y

$$$$
>  <Variant Code>
A24I

>  <Class Label>
y

$$$$
>  <Variant Code>
G8L

>  <Class Label>
y

$$$$
>  <Variant Code>
Q9A

>  <Class Label>
y

$$$$
>  <Variant Code>
D13P

>  <Class Label>
y

$$$$
>  <Variant Code>
P22M

>  <Class Label>
y

$$$$
>  <Variant Code>
G3R

>  <Class Label>
n

$$$$
>  <Variant Code>
G8W

>  <Class Label>
y

$$$$
>  <Variant Code>
G3Q

>  <Class Label>
y

$$$$
>  <Variant Code>
A21W

>  <Class Label>
y

$$$$
>  <Variant Code>
L15H

>  <Class Label>
y

$$$$
>  <Variant Code>
S6T

>  <Class Label>
y

$$$$
>  <Variant Code>
E23F

>  <Class Label>
n

$$$$
>  <Variant Code>
S1Y

>  <Class Label>
n

$$$$
>  <Variant Code>
R18F

>  <Class Label>
n

$$$$
